Test: blockers of HIV-1 ZM109 envelope-driven cell-cell fusion – HeLa effector, CEM target cells, luciferase, cherry-pick, dose response (AID 652058)
Conditions: HeLa Env/CEM cell fusion, 16-24 h; series mostly up to 35 µM
The campaign covered roughly 1,200 compounds. About 870 (72%) were called active. About 3% were inconclusive and are not listed. So high a share suggests a set chosen from earlier hits. These entries were drawn from the full list. Results with a measured potency or affinity are listed apart.
MEASURED_PARAMETER: activity change, negative = inhibition

| MOLECULE | DATA_VALUE |
| --- | --- |
| CCc1ccc(-c2nc(CN3CCC(C(=O)NCCc4ccc(OC)c(OC)c4)CC3)c(C)o2)cc1 | inactive |
| CN(C)C(=O)C[C@@H]1C[C@@H]2c3cc(NS(=O)(=O)c4ccc(F)cc4)ccc3O[C@@H]2[C@@H](CO)O1 | inactive |
| O=C(c1ccc(Cl)cc1)N1CCCCC(Sc2nnc(-c3ccc4c(c3)OCO4)o2)C1=O (centres undefined) | inactive |
| COc1ccc(N2CCN(C(=O)C3CCC(Cn4c(=S)[nH]c5ccccc5c4=O)CC3)CC2)cc1 (centres undefined) | inactive |
| CCOc1ccc(OCc2cccc(C(=O)N/N=C/c3cccnc3)c2)cc1 | inactive |
| Cc1ccccc1-n1c(=O)c2ccccc2n2cnnc12 | inactive |
| CN(C)C(=O)C[C@@H]1C[C@H]2c3cc(NS(=O)(=O)c4ccc(F)cc4)ccc3O[C@H]2[C@H](CO)O1 | inactive |
| Cc1[nH]c2ccccc2c1/C=N\NC(=O)c1ccccc1Cl | inactive |
| CCCNC(=O)C[C@@H]1C[C@@H]2c3cc(NC(=O)CN(C)C)ccc3O[C@@H]2[C@H](CO)O1 | inactive |
| CCCCNC(=O)C[C@H]1C[C@@]2(C(=O)OC)C(=C[C@H](C(C)(C)C)O[C@@H]2C)N(Cc2ccc3c(c2)OCO3)C1=O | inactive |
| O=C(c1ccc(Cl)s1)N1CCN(c2nc3ccccc3s2)CC1 | inactive |
| Cc1ccc(COC(=O)c2cc(S(=O)(=O)N3CCCCC3)ccc2N2CCOCC2)cc1 | inactive |
| COc1cccc(CN2CCC2(C)C(=O)Nc2cccc(Oc3ccccc3)c2)c1OC (centres undefined) | inactive |
| O=C(C[C@@H]1C[C@H]2c3cc(NC(=O)C4CCC4)ccc3O[C@H]2[C@H](CO)O1)NCC(F)(F)F | inactive |
| O=C(Nc1ccc(N2CCN(C(=O)c3ccccc3)CC2)c(Cl)c1)c1cccnc1 | inactive |
| CCOC(=O)C1CCN(C(=O)c2ccc3c(c2)C(=O)N(c2ccccc2C)C3=O)CC1 | inactive |
| CCCNC(=O)C[C@@H]1C[C@@H]2c3cc(NC(=O)Cc4ccncc4)ccc3O[C@@H]2[C@H](CO)O1 | inactive |
| O=C(COC(=O)c1cc(S(=O)(=O)N2CCOCC2)ccc1O)NCc1ccc2c(c1)OCO2 | inactive |
| O=C(CC1C(=O)NCCN1Cc1cccc(F)c1)NC1CCCCC1 (centres undefined) | inactive |
